# Test target: Growth hormone secretagogue receptor type 1 (Homo sapiens, UniProt Q92847)
# Sequence (Q92847 whole entry): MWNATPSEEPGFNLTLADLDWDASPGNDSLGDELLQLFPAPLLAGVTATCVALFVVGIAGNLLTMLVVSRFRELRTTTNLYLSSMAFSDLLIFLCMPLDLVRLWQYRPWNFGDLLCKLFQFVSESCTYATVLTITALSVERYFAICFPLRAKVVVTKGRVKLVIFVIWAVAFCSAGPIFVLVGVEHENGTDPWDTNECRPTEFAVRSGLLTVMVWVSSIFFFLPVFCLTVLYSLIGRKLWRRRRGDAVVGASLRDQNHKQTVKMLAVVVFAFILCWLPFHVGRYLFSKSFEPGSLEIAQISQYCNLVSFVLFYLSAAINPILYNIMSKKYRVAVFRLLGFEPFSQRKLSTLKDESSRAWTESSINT
# Assay method text: Determination of Human GHSR Agonist Activity
pEC50: −log10 of the molar value.
Label rule, in plain words: pEC50 of 8 and up is 1 (yes), under 8 is 0 (no).

Molecule | Answer label
CC(C)(C)C(=O)OCOC(=O)NC(C)(C)C(=O)N[C@H](COCc1ccccc1)C(=O)N1CCC2(CC1)CN(S(C)(=O)=O)c1ccccc12 [US20240190875, Example 21] | 0 (no)
CC(=O)/C=C(/C)NC(C)(C)C(=O)N[C@H](COCc1ccccc1)C(=O)N1CCC2(CC1)CN(S(C)(=O)=O)c1ccccc12 [US20240190875, Example 19] | 0 (no)
CC(C)C(=O)OCOC(=O)NC(C)(C)C(=O)N[C@H](COCc1ccccc1)C(=O)N1CCC2(CC1)CN(S(C)(=O)=O)c1ccccc12 [US20240190875, Example 15] | 1 (yes)
Cc1oc(=O)oc1COC(=O)NC(C)(C)C(=O)N[C@H](COCc1ccccc1)C(=O)N1CCC2(CC1)CN(S(C)(=O)=O)c1ccccc12 [US20240190875, Example 17] | 0 (no)

###

# Test target: Growth hormone secretagogue receptor type 1 (Homo sapiens)
# Assay method text: Determination of Human GHSR Agonist Activity
Observed property: EC50 (nM)

Smiles | Observed property | Number
C[n+]1cccc(C(=O)NC(C)(C)C(=O)N[C@H](COCc2ccccc2)C(=O)N2CCC3(CC2)CN(S(C)(=O)=O)c2ccccc23)c1 | EC50 | 15.1
CC(=O)OCOC(=O)NC(C)(C)C(=O)N[C@H](COCc1ccccc1)C(=O)N1CCC2(CC1)CN(S(C)(=O)=O)c1ccccc12 | EC50 | 9.3
CC(C)(NC(=O)[C@@H](N)CCC(N)=O)C(=O)N[C@H](COCc1ccccc1)C(=O)N1CCC2(CC1)CN(S(C)(=O)=O)c1ccccc12 | EC50 | 15.6
CC(C)(NC(=O)CN)C(=O)N[C@H](COCc1ccccc1)C(=O)N1CCC2(CC1)CN(S(C)(=O)=O)c1ccccc12 | EC50 | 9.8
